Target or system: Fuc(a1-2)[GalNAc(a1-3)]Gal(b1-4)GlcNAc(b1-3)Gal(b1-4)GlcNAc(b1-3)Gal(b1-4)GlcNAc
Assay protocol: glycan array binding signal (z-score within array); higher = stronger binding
Experimental parameters: glycan notation: IUPAC condensed, linker removed
The full list was thinned out, with the strongest signals kept by preference.
Recorded glycan array binding signal (z-score) values for a group of binders are listed next.
Readout: glycan array binding signal (z-score)

Binder	Readout	Reading
LecB PA14 (Pseudomonas aeruginosa) (protein) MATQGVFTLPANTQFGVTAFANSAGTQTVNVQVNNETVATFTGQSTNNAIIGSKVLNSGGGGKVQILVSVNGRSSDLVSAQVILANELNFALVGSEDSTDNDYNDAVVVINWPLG	glycan array binding signal (z-score)	-0.182
Epa22 (Candida glabrata) (protein) MGSSHHHHHHSSGLVPRGSHMKRALSSQNPFGYPIGCSPQSTNVIPGLTMELYSYPIVSGTPPNCYDASYVDPEYPRTGYLKRKMIGKSTGVTGSLNYKFSVEKACMVKYGNLPAGYNYNEPLTVSNFTMLLYGYFKPQTSGIHTFFVNADDLLYINFGAGNAFDCCKREDSKFKLGEYVAYDIWHVDSSKNKVSLNLEKDVYYPIRMFFNNIGKDSSLDLSFSVNGAVEHITDFSGYLYSVPDQPDACPAPIGYDTTCK	glycan array binding signal (z-score)	-0.366
